Assay: Selectivity index, ratio of CC50 for human MT2 cells to EC50 for HIV 3B infected in MT2 cells
Type: toxicity, cell-based
Details: read-out: Ratio CC50/EC50
The entries below are paired with their reported selectivity ratio.
Answer with the value's number alone.

Below, 2 molecules whose answers are already recorded.
>>> test_result("O=C(O)c1cc(-c2ccc(/C=C3\\CC(=O)N(CCc4ccccc4)C3=O)o2)ccc1Cl")
17.2
>>> test_result("O=C(O)c1cc(-c2ccc(/C=C3\\OC(=S)N(CCc4ccccc4)C3=O)o2)ccc1Cl")
9.1

Indicate its recorded selectivity ratio; the molecule in question is O=C(O)c1cc(-c2ccc(/C=C3\SC(=O)N(CCc4ccccc4)C3=O)o2)ccc1Cl
4.5

Provide only the value of recorded selectivity ratio for O=C(O)c1cc(-c2ccc(/C=C3\NC(=O)N(CCc4ccccc4)C3=O)o2)ccc1Cl
1.5

Tell me its selectivity ratio given O=C(O)c1cc(-c2ccc(/C=C3\SC(=S)N(CCc4ccccc4)C3=O)o2)ccc1Cl as the entry.
406

Origin of the recorded values: ChEMBL document CHEMBL1909571
